These data points were gathered from the supplement of paper PMC12042874.

test: amyloid nucleation score (Sup35N fusion, yeast selection) (log enrichment); library NNK3; higher = more nucleation; inactive = no reads after selection;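 note: zero at mode of non-aggregating sequences after 7 days selection at 30°C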

{"columns": ["RESIDUE STRING", "amyloid nucleation score"],
 "data": [
  ["FWLRAVSLSWLMIEKKYMLR", "inactive"],
  ["GVMVPTALLISNPSRRFHWL", "inactive"],
  ["FSVSASEKHFFSCVMLYCVS", 0.935],
  ["FWGFAFPFTSHGGPKNLEES", "inactive"],
  ["WSRSACMGEGNLDVFSVWLL", "inactive"],
  ["KNTSCWAATSADQRRVDFRR", "inactive"],
  ["DTDWGRMWQGGSVYGYAFCA", "inactive"],
  ["FFNKGCMFCSREAVIVQIWG", 2.62],
  ["YFFIRVIALYLRVELSL", "inactive"],
  ["QCRHPGSRP", "inactive"],
  ["TFRLILILRTSI", 0.898],
  ["LGVGMQRYMSWRRK", 0.504],
  ["TISSSLKRMWDIVFSLCNNI", "inactive"],
  ["MLCHLVMTSSLSRFLDRGFR", 1.26],
  ["VGHFISYCNRIFSAKAIIVF", "inactive"],
  ["LRRMDQMANDLFAI", "inactive"],
  ["IRGASYPSATNRHAAMLVWM", "inactive"],
  ["GFRRRSMDALSVTVDSVVAP", "inactive"],
  ["RYPSDSIGFISLDTGGCGVR", "inactive"],
  ["VHRWGYQCSWVEQ", "inactive"],
  ["YLSASYIVYFIITEYYSYIF", "inactive"],
  ["VVRCLLFVQLGCSKNLVAFQ", 1.12],
  ["VAFYVTHGAIVYFSMGCAGI", 1.63],
  ["CLSLLNFDVCVMRSVVRVFA", "inactive"],
  ["LYSVFVRRSCLNG", "inactive"],
  ["CTNKFVWKFVKFNNLCLLAY", "inactive"],
  ["CRLVAEYGLQVKPMQR", "inactive"]
]}

* * *

test: amyloid nucleation score (Sup35N fusion, yeast selection) (log enrichment); library NNK2; higher = more nucleation; inactive = no reads after selection
MEASUREMENT LABEL: amyloid nucleation score

{"columns": ["SUBSTANCE", "MEASUREMENT LABEL", "REPORTED"],
 "data": [
  ["TLRTFRRAQGTRYVYLK", "amyloid nucleation score", 0.121],
  ["VSSPLAWKFLVNKICISDGG", "amyloid nucleation score", "inactive"],
  ["NGFNYFKMW", "amyloid nucleation score", -1.65],
  ["CSQVALLNKLFLPG", "amyloid nucleation score", -1.14],
  ["SNWCGFSSTIKSESY", "amyloid nucleation score", "inactive"],
  ["TQSWVAISLVRHRSWGSWLG", "amyloid nucleation score", 3.57],
  ["LSEFDHYDWVSSSTLFGFCC", "amyloid nucleation score", -1.13],
  ["CFNTTNEMRSTSSWLRYGSV", "amyloid nucleation score", 3.83],
  ["CPSYSTMSTGFVERVLPTGR", "amyloid nucleation score", 1.53],
  ["NSGSYTSSFNDLVDTLSVLS", "amyloid nucleation score", "inactive"],
  ["VSIVRYIFSPNWFVTIASIY", "amyloid nucleation score", -1.51],
  ["YFRAYWTCSEC", "amyloid nucleation score", "inactive"],
  ["AIEKSQYLSNVDYRICSLMT", "amyloid nucleation score", -0.336],
  ["RSGCQMKCITYRGRAGGHLV", "amyloid nucleation score", 0.882],
  ["ACSRANLAKKLRGMWRYSAF", "amyloid nucleation score", -0.199],
  ["DAVRQGTL", "amyloid nucleation score", 0.102],
  ["LESHLVMRYS", "amyloid nucleation score", -0.307],
  ["ISTMSGPFVSRLWYSAYNTA", "amyloid nucleation score", -0.345],
  ["SGESSNCWLMIL", "amyloid nucleation score", "inactive"],
  ["WRALPKYGYCLSLGVYEETR", "amyloid nucleation score", -0.102],
  ["NFNACIPNKDRSFSNVDVCV", "amyloid nucleation score", -1.35],
  ["SCSVGRNKMWILVLVVVWGE", "amyloid nucleation score", 0.035],
  ["MSSINTRPRNDA", "amyloid nucleation score", -0.645],
  ["NVGGIASLGPFTY", "amyloid nucleation score", -0.14],
  ["NNQYINWMRKCG", "amyloid nucleation score", -0.671],
  ["LVVVRMGGIGLESFVAHGEV", "amyloid nucleation score", 0.524],
  ["PSGFVVLGSLCGMIFVRVTK", "amyloid nucleation score", -0.974],
  ["CIELLYEYAIDLQAWVLLER", "amyloid nucleation score", 0.389],
  ["CVFNTFMNDKIIGRLWPTDW", "amyloid nucleation score", 2.91],
  ["SSYLGMENQRLMRKESGCCL", "amyloid nucleation score", 0.09],
  ["RVFFTVCGMHTGSSKKLAGL", "amyloid nucleation score", 1.23],
  ["VMHSYDYVTMGFRSRTDPFR", "amyloid nucleation score", 3.05],
  ["FYPAEFYGKGLVDRTLFFIC", "amyloid nucleation score", 0.12],
  ["IRLTRY", "amyloid nucleation score", -0.338],
  ["LIADLQKFSYVSWAGCMTY", "amyloid nucleation score", 4.4],
  ["FNVAGRRRISGTNLY", "amyloid nucleation score", -0.159],
  ["VYCFSAFLGQ", "amyloid nucleation score", 3.63],
  ["LYHETAENSSRTQTTRRWSF", "amyloid nucleation score", -0.321],
  ["SQTMVITFFSRCDVQIVKIN", "amyloid nucleation score", 5.58],
  ["YNPLLIV", "amyloid nucleation score", 0.082],
  ["SPWKTFMQVLWDTWVARVCL", "amyloid nucleation score", 0.515],
  ["RLRIMYSTLLATGMV", "amyloid nucleation score", 0.178],
  ["LRNGVPDADASSRYFWAAEW", "amyloid nucleation score", 0.712],
  ["TGVIAYVRKVGDLSSCVYSC", "amyloid nucleation score", 3.6],
  ["LLLGTSVDVFL", "amyloid nucleation score", 0.07],
  ["NKLTVPYTVDVNDTILDRGK", "amyloid nucleation score", -0.015],
  ["SGILVKLVMIFSWKGGGV", "amyloid nucleation score", 2.96],
  ["SMSLRTCSLSFVSWMKFKDG", "amyloid nucleation score", 0.095],
  ["HFIGVD", "amyloid nucleation score", -0.156],
  ["SSVMPAVIAFACCCNKSTFA", "amyloid nucleation score", -0.237],
  ["CLPNTST", "amyloid nucleation score", 0.075],
  ["QFSCRCN", "amyloid nucleation score", 0.011],
  ["VRFVMNRSHHRSRWEAVAFN", "amyloid nucleation score", 0.255],
  ["SREINITLGKTFYPSRMYGV", "amyloid nucleation score", 4.48],
  ["DGVCKFQELMSFPGKLYS", "amyloid nucleation score", -0.447],
  ["HCTWSQPPSS", "amyloid nucleation score", -0.001],
  ["PDFYMYPSLNDKSDLI", "amyloid nucleation score", -0.78],
  ["FGYFYMKHLTPALMPYTGY", "amyloid nucleation score", -0.441],
  ["YIWYFKMEVDYVLMMYAVAG", "amyloid nucleation score", 0.183],
  ["SWVRVDHLNDMYRFELK", "amyloid nucleation score", 0.286],
  ["VSAGWSTST", "amyloid nucleation score", 3],
  ["FPASHRVVQV", "amyloid nucleation score", 5.41],
  ["PEFLNKMQTTIYDKDCYMDR", "amyloid nucleation score", "inactive"],
  ["PCYFINFLRFSWNIQLYNVL", "amyloid nucleation score", -0.668],
  ["TLTSSCVNFINMLHEIFRYS", "amyloid nucleation score", -0.623]
]}
